Can you tell me EC50 for the items I'm about to list?
System: Human immunodeficiency virus 1
protocolText: microbe, parasite or virus in culture
setupConditions: Human immunodeficiency virus 1, clade A (UG273)
Description: Antiviral activity against HIV1 clade A (UG273) infected in human PBMCs assessed as inhibition of p24 antigen production by ELISA
Could you give the number and then its unit, please?

input: Value lookup for EC50; key = `Cc1cc(C)cc(S(=O)(=O)c2c(C(=O)NCc3ccncc3)[nH]c3ccc(Cl)cc23)c1`
output: 0.6 nM

input: Value lookup for EC50; key = Cc1nnc(C(C)C)n1[C@H]1C[C@H]2CC[C@@H](C1)N2CC[C@H](NC(=O)C1CCC(F)(F)CC1)c1ccccc1 (relative stereo)
output: 1 nM

====

Entries with their measured IC50, system Human immunodeficiency virus type 1 reverse transcriptase (Human immunodeficiency virus 1):

input: Value lookup for IC50; key = `Cc1cc(C)cc(S(=O)(=O)c2c(C(=O)NCCc3cccnc3)[nH]c3ccc(Cl)cc23)c1`
output: 40 nM

input: Value lookup for IC50; key = `Cc1cc(C)cc(S(=O)(=O)c2c(C(=O)NCc3ccncc3)[nH]c3ccc(Cl)cc23)c1`
output: 21 nM

input: Value lookup for IC50; key = `Cc1cc(C)cc(S(=O)(=O)c2c(C(=O)NCc3ccc(C#N)cc3)[nH]c3ccc(Cl)cc23)c1`
output: > 10 nM

input: Value lookup for IC50; key = `Cc1cc(C)cc(S(=O)(=O)c2c(C(=O)Nc3cccc(C#N)c3)[nH]c3ccc(Cl)cc23)c1`
output: 506 nM

input: Value lookup for IC50; key = `Cc1cc(C)cc(S(=O)(=O)c2c(C(=O)NCc3cccnc3)[nH]c3ccc(Cl)cc23)c1`
output: 20 nM
